This collection of values is drawn from ChEMBL document CHEMBL4813983.

# tgt: Lactoylglutathione lyase (Homo sapiens, UniProt Q04760)
# Sequence (Q04760 2-184 limits assumed): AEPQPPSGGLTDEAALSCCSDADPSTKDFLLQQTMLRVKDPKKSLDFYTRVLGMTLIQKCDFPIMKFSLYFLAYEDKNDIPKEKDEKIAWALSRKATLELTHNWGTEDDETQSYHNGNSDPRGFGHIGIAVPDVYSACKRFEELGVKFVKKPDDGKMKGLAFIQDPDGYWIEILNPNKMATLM
# experiment: Inhibition of Glyoxalase-1 (unknown origin) assessed as inhibition of S-D-lactoylglutathione formation using MG and reduced glutathione as substrate at 100 uM by spectrophotometric method relative to control
We begin with a simple list: items and their reported inhibition.
# unit: % | format: bare number

Known results for molecules:
Entry COc1ccc(CC(CC(=O)O)c2nc3ccccc3s2)cc1 (stereo unspecified) has what inhibition?
57

Consider next the molecule COc1ccc(/C=C(\CC(=O)O)c2nc3ccccc3o2)cc1 in the same way.
92.9

Consider next the molecule O=C(O)C/C(=C\c1ccc2ccccc2c1)c1nc2ccccc2s1 in the same way.
99

***
Entry O=C(O)C/C(=C\c1ccc(Br)cc1)c1nc2ccccc2[nH]1 has what inhibition?
44.4

Consider next the molecule COc1ccccc1/C=C(\CC(=O)O)c1nc2ccccc2s1 in the same way.
69.3

Consider next the molecule COc1ccc(/C=C(\CCC(=O)O)c2nc3ccccc3s2)cc1 in the same way.
28.8

Consider next the molecule O=C(O)C/C(=C\c1ccc(CC(=O)O)cc1)c1nc2ccccc2s1 in the same way.
95.2
